# Measured target: T1, Histidine-tagged human 4-1BB protein (h4-1BB-His) (human, UniProt Q07011 24-186)
# T1 construct: not shown: histidine tag
# Protocol: SPR (Biacore T200), antibody on Protein A chip, h4-1BB-His injected;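 also: dissociation phase followed for 300 s, Kd derived as koff divided by kon from the kinetic fit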
Below, each entry is listed alongside its reported koff.
Numeric answer only, unit s⁻¹ assumed.

| Binder | Unit spec | koff |
| --- | --- | --- |
| 6A5-H1K3-IgG2 (antibody, V domains shown, humanized) VH: QVQLVQSGAEVKKPGSSVKLSCKASGYTFSSYWINWVRQAPGQGLEWMGNIYPSDSYTNYNQKFKDRVTLTVDKSTSTAYMELSSLRSEDTAVYYCTRTWEFYYDSVFDYWGQGTLVTVSS VL: DIQMTQSPSSLSASLGERVTITCKASQDINSYLSWFQQKPGKAPKTLIYRANRLVDGVPSRFSGSGSGQDFTLTISSLQPEDIATYYCLQYDELPPTFGGGTKVEIK | s⁻¹ | 0.000475 |

Moving on to another binder below.
stdin: koff lookup needed for 6A5-H2K2-IgG2 (antibody, V domains shown, humanized) VH: QVQLVQSGAEVKKPGSSVKLSCKASGYTFSSYWINWVRQAPGQGLEWIGNIYPSDSYTNYNQKFKDRATLTVDKSTSTAYMELSSLRSEDTAVYYCTRTWEFYYDSVFDYWGQGTLVTVSS VL: DIQMTQSPSSLSASLGERVTITCKASQDINSYLSWYQQKPGKAPKTLIYRANRLVDGVPSRFSGSGSGQDFTLTISSLQPEDIATYYCLQYDELPPTFGGGTKVEIK , thanks.
stdout: 0.000652

Data credit: patent US20240092922A1
